Origin of measurements: PubChem BioAssay (NCI)

Each record here notes measured TGI.
Tested on: SF-295 CNS
assayProtocol: NCI tumour cell line growth inhibition, 48 h

**Query** Consider the molecule `O=C(CNc1nncs1)NO` and give its recorded TGI.
**Result** > 100 µM

**Query** Give TGI for the following molecule: CCC(C)[C@H](NC(=O)N[C@H](C)c1ccccc1)C(=O)OC (some centres undefined)
**Result** > 100 µM

**Query** Quote TGI reported for `CCCCCc1cc(OC(=O)c2c(O)cc(OC)cc2CCCCC)cc(O)c1C(=O)O` please.
**Result** 35.4 µM

**Query** Supply TGI value. Item: `CC1=C(C(=O)Nc2ccccc2C)C(c2ccccc2)C(C(=O)Nc2ccccc2C)=C(C)N1`
**Result** > 100 µM

**Query** Name the recorded TGI of the molecule listed here: CC(C)CCCC(C)[C@H]1CCC2[C@@H]3CCC4Cc5nc6c(nc5C[C@]4(C)C3CC[C@@]21C)CC1CC[C@@H]2C(C[C@@H](O)[C@@]3(C)C2C[C@@H]2OC4(CCC(C)CO4)C(C)[C@@H]23)[C@@]1(C)C6 (some centres undefined)
**Result** > 100 µM

**Query** Return the recorded TGI value; entry: O=C1C(Br)=CC2([N+](=O)[O-])CCNc3c(O)c4c5c(c3C2=C1Br)=NCCC=5C=N4 (centres undefined)
**Result** 4.63 µM

**Query** Respond only with TGI recorded for `Cn1c(=O)c2c(nc(NCCCCl)n2CC(=O)O)n(C)c1=O`
**Result** > 100 µM

**Query** Return the recorded TGI value; entry: `Cc1ccc(N=Nc2c(C)nn(C(=O)CC(=O)Nc3ccccc3)c2C)cc1C`
**Result** > 100 µM

**Query** State, in one line, measured TGI of CC(=O)C(C(C)=O)=C1CCCC(O)O1 (centres undefined)
**Result** > 100 µM
